target: T1, HLA-DR DRB1*0404 (human); assay: radiolabeled-peptide inhibition, purified HLA-DR; details: remark: other sources report otherwise
T1 chain 1: not shown
T1 chain 2: not shown
OBSERVATION_TYPE: IC50

Summary for this binder, SLTLQGLGISWLGLR [9019.0055] : IC50 is 110 nM
